Tested on: NCI/ADR-RES ovarian
Assay: NCI tumour cell line growth inhibition, 48 h
QUANTITY: TGI

// below: answered compounds
>>> data_value("O=C1NC(=S)N/C1=C\\c1cccs1")
"> 100 µM"
>>> data_value("O=C(O)CCCc1ccc2ccc3ccccc3c2c1")
"> 100 µM"
>>> data_value("CCOP(=Nc1ccc(N(C)C)cc1)(OCC)OCC")
"> 100 µM"
>>> data_value("CN(C)CCNC(=O)c1cccc2c(=O)c3ccccc3oc12")
"> 79.9 µM"
>>> data_value("COc1c(=O)cc2cc[nH]c3cc[nH]c1c23")
"> 100 µM"

List reported TGI for each of these compounds:
1. Cc1cccc(Cl)c1NCC(O)CN1CCN(C)CC1 (configuration not stated)
2. COc1ccc2c(c1)C(=O)/C(=C/c1cccc(OCC(=O)c3ccccc3)c1)O2

Reply |
["> 100 µM", "26.4 µM"]

----------
Tested on: MCF7 breast
Experiment: NCI tumour cell line growth inhibition, 48 h
QUANTITY: TGI

Examples with answers:
>>> data_value("CNc1ncccc1Nc1cc(=O)n2c3cccnc3n(C)c2c1")
"> 100 µM"
>>> data_value("Cc1cn(-c2cc(NC(=O)c3cccc(C#Cc4cccc5[nH]nc(N)c45)c3)cc(C(F)(F)F)c2)cn1")
"> 100 µM"
>>> data_value("NCCCNCCS")
"> 100 µM"
>>> data_value("CCCCCCCCCC[C@@H](OC(C)=O)[C@@H]1CC[C@@H]([C@@H]2CC[C@@H]([C@@H](O)CC#C/C=C/CCCCCCC[C@@]3(Sc4ccccc4)C[C@H](C)OC3=O)O2)O1")
"> 10 µM"
>>> data_value("CN(c1ccc(NC(=O)Nc2c(Cl)cccc2Cl)cc1)c1ccnc(Nc2cccc(CS(C)(=O)=O)c2)n1")
"> 14.3 µM"
>>> data_value("CC(C)CNc1nc(-c2ccccc2Cl)nc2ccccc12")
"47.7 µM"
>>> data_value("COC1(OC)N=C(N)C2(C#N)C(c3ccccc3)NC3=C(CCC3)C12C#N (centres undefined)")
"> 100 µM"
>>> data_value("CS(=O)(=O)Nc1ccc2ccccc2c1-c1c(NS(C)(=O)=O)ccc2ccccc12")
"> 25 µM"

Ask | Which value of TGI has been reported for CC1(C)C2CCC1(C)C(N/C(Sc1ccccc1)=C(/C(Cl)=C(Cl)Cl)[N+](=O)[O-])C2 (centres undefined) in the records?
Reply | 24 µM

----------
System: COLO 205 colon
Assay: NCI tumour cell line growth inhibition, 48 h
QUANTITY: TGI

>>> data_value("CC(=O)C1C(c2ccccc2)C2(C)OC(=O)C(C#N)C12C (stereo unspecified)")
"> 100 µM"
>>> data_value("Cc1nc2ccc(Br)cc2c(=O)n1-c1nnc(C(C)(C)C)s1")
"> 10 µM"
>>> data_value("CCCCC1(NN=C2CCCCC2)C(=O)N(c2ccccc2)N(c2ccccc2)C1=O")
"> 100 µM"
>>> data_value("Cc1cc(Cl)ccc1OCC(=O)Nc1nc2c(Cl)cccc2s1")
"> 100 µM"

Please supply TGI for each of the following items, keeping them in order.
1. COC(=O)C(=O)CC(=O)CCn1[nH]c(=O)c(Cl)c(Cl)c1=O
2. N#Cc1ccc(-c2nc3c(N)ncnc3o2)cc1
3. NC1=NN(c2ccccc2)C(=O)C1C(=O)CCC(=O)Nc1cccc(Cl)c1 (stereo unspecified)
4. O=C1OC(CCCN2CCCCC2)(c2ccccc2)CC12CCCC2 (stereo unspecified)
5. COc1c(=O)cc2cc[nH]c3cc[nH]c1c23
6. CC(C)NC(=O)OCc1c2c(n(C)c1COC(=O)NC(C)C)-c1cc(Cl)c(Cl)cc1CC2
7. OCC12C=CC(C1)c1ccccc12 (stereo unspecified)

Reply |
> 100 µM
> 100 µM
> 100 µM
> 100 µM
> 100 µM
73.6 µM
> 100 µM

----------
I'd appreciate it if you could supply TGI values for the items below.
Test system: HL-60(TB) leukemia
Assay: NCI tumour cell line growth inhibition, 48 h

>>> data_value("Cc1ccc(C(=O)N/N=C(\\N=Nc2cccc([N+](=O)[O-])c2)c2ccc(N(CCC#N)CCC#N)cc2C)cc1")
"> 43 µM"
>>> data_value("CC(C)C(O)(C(C)C)C(C)C")
"> 100 µM"
>>> data_value("Cc1cc(Cl)ccc1OCC(=O)Nc1nc2c(Cl)cccc2s1")
"> 100 µM"
>>> data_value("CN(C)/C=C/C(=CC=[N+](C)C)/C=C/N(C)C")
"> 100 µM"
>>> data_value("O=C1CS(=O)(=O)C(c2cccc(Oc3ccccc3)c2)N1c1ccc(Cl)cc1 (stereo unspecified)")
"> 100 µM"
>>> data_value("CCCCCCCCn1ccc2cc(NC(=O)Cn3cc(CN4CCCCCC4)nn3)ccc21")
"3.75 µM"
>>> data_value("O=c1oc(-c2ccccc2)cn1-c1ccccc1")
"> 100 µM"
>>> data_value("Nc1n[nH]c2cccc(C#Cc3cccc(NC(=O)c4cccc(C(F)(F)F)c4)c3)c12")
"4.55 µM"
>>> data_value("Cc1ccc(C2(O)CSC(=NC34CC5CC(CC(C5)C3)C4)N2C(P(=O)(O)O)P(=O)(O)O)cc1 (stereo unspecified)")
"> 100 µM"
>>> data_value("N#C/C(=C/c1cccc(Oc2ccccc2)c1)c1ccccc1")
"> 100 µM"

For each of the items listed, what is its TGI?
1. O=C1C=C(C2OC(CO)C(O)C2O)C(=O)N1 (stereo unspecified)
2. CS(=O)(=O)Nc1ccc2ccccc2c1-c1c(NS(C)(=O)=O)ccc2ccccc12
3. CC(=O)OC1OC([C@H]2c3cccc(O)c3C(=O)c3c(O)cc(C)cc32)C(O)C(O)C1O (stereo partly specified)
4. COc1cccc2c1C(=N)c1c(O)c3c(c(O)c1C2=O)C[C@@](O)(C(C)=O)C[C@@H]3O[C@H]1C[C@H](N)[C@H](O)[C@H](C)O1
5. COc1ccc2c(c1)NC1=C(C(=O)OC1)C2c1cc(OC)c(OC)c(OC)c1 (stereo unspecified)

Reply |
1: > 100 µM; 2: > 25 µM; 3: 0.0472 µM; 4: 2.36 µM; 5: < 0.01 µM

For every item below, please supply its TGI.
1. O=C(Nc1ccc(Cl)cc1)C1C(=O)C(=O)N(c2ccc(Cl)cc2)C1=O (stereo unspecified)
2. CNC(=O)OCc1nc(SSC(C)(C)C)n(C)c1COC(=O)NC
3. NC(CSC(c1ccccc1)(c1ccccc1)c1ccccc1)C(=O)NCC(=O)O (stereo unspecified)
4. CCOC(=O)Nc1cc2c(c(N)n1)N=C(c1ccc(OC)cc1)CN2
5. O=C1/C(=C/C=C/c2ccccc2)CCC1CNc1ccccc1 (stereo unspecified)
6. O=[N+]([O-])c1ccc(CSc2nncc3[nH]cnc23)cc1

Reply |
1. > 100 µM
2. 2.66 µM
3. 12 µM
4. 0.00595 µM
5. 16.7 µM
6. > 100 µM

----------
Test system: A498 renal
Assay: NCI tumour cell line growth inhibition, 48 h; in the data active = GI50 below about 0.43 µM; inactive = the rest
Use one of these outcomes when replying: yes (1) = active, no (0) = inactive

These solved cases illustrate the format of a correct answer.
>>> label("CC1(C)N=C(N)N=C(N)N1c1ccc(CCC(=O)Nc2ccc(S(=O)(=O)F)cc2)c(Cl)c1")
"no (0)"
>>> label("CC/C=C\\C[C@H]1CC=C2C(=O)C=C[C@@H]2CC=CCCCC(=O)O[C@@H](CCCCC)CC=C2C(=O)C=C[C@@H]2CC=CCCCC(=O)O[C@@H](CCCCC)CC=C2C(=O)C=C[C@@H]2CC=CCCCC(=O)O[C@@H](CCCCC)CC=C2C(=O)C=C[C@@H]2CC=CCCCC(=O)O1")
"no (0)"

Turning now to a further record.
Ask | Which outcome was entered for the compound C#CC1(O)C(COP(=O)(O)OCC(COP(=O)(O)OCC2OC(n3cc(F)c(=O)[nH]c3=O)CC2O)OCCCCCCCCCCCCCCCCCC)OC(n2ccc(N)nc2=O)C1O (stereo not drawn) in this test?
Reply | yes (1)

----------
Exercise: for every item that follows, state its recorded TGI.
System: IGROV1 ovarian
Experiment: NCI tumour cell line growth inhibition, 48 h

Consider the reported TGI for these compounds:
>>> data_value("CC(=O)SCCC(NC(=S)Nc1ccccc1)P(=O)(Oc1ccccc1)Oc1ccccc1 (stereo not given)")
"> 100 µM"
>>> data_value("O=C(O)CCCc1ccc2ccc3ccccc3c2c1")
"> 100 µM"
>>> data_value("CCC1=CCN(c2cc(C)ccn2)OC1c1ccc(OC)cc1 (stereo not given)")
"> 100 µM"
>>> data_value("COc1ccc2c(c1)C(=O)/C(=C/c1cccc(OCC(=O)c3ccccc3)c1)O2")
"13.3 µM"
>>> data_value("CC(=O)OCC1OC(N2C(C)=C(C(C)=O)C(c3ccc(Cl)cc3)C(C#N)=C2S)C(OC(C)=O)C(OC(C)=O)C1OC(C)=O (stereo not given)")
"> 100 µM"
>>> data_value("COc1ccc2c(c1)NC1=C(C(=O)OC1)C2c1cc(OC)c(OC)c(OC)c1 (stereo not given)")
"> 100 µM"

Please supply TGI for each of the following items, keeping them in order.
1. CCOP(=Nc1ccc(N(C)C)cc1)(OCC)OCC
2. CN(C)CCOc1ccc([N+](=O)[O-])c2cccnc12

Reply |
1. > 100 µM
2. > 100 µM

Hi there! I need TGI for each item below, if you can.
1. O=C1C(=O)c2ccccc2C(O)=C1C(C1=C(O)c2ccccc2C(=O)C1=O)c1ccc(Cl)cc1
2. CCCCC1(NN=C2CCCCC2)C(=O)N(c2ccccc2)N(c2ccccc2)C1=O
3. O=S(=O)(O)c1ccc(N=Nc2ccc3c(S(=O)(=O)O)cccc3c2O)c2ccccc12

Reply |
1. 27.2 µM
2. > 100 µM
3. > 100 µM
